# Tgt: Human VPS34 (Homo sapiens (Human), UniProt Q8NEB9)
# Sequence (Q8NEB9 whole entry): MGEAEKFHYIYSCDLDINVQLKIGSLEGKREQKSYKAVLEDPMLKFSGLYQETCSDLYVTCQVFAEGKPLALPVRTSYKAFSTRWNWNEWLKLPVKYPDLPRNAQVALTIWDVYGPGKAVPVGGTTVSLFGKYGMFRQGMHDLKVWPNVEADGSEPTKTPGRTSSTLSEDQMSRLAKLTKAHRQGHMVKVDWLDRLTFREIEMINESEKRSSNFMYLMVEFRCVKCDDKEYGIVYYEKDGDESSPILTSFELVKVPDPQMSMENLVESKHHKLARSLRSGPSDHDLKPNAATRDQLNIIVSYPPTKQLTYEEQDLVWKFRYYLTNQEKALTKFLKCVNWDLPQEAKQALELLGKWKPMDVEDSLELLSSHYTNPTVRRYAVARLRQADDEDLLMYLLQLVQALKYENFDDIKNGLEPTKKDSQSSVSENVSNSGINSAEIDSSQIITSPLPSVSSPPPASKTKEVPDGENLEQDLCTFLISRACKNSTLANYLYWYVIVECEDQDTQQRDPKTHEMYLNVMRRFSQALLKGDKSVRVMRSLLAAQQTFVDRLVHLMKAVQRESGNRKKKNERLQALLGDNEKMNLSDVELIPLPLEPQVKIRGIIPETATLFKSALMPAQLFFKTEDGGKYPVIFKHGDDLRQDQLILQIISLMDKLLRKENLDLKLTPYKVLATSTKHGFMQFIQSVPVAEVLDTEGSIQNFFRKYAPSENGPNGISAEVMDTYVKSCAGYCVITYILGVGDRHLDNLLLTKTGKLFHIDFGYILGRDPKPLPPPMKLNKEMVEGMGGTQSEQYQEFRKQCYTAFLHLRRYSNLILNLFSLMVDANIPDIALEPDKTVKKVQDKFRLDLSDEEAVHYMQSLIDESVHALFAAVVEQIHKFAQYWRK
# Assay method text: Human VPS34 enzyme assay (Adapta TR-FRET)
# Type: biochemical
# Setup conditions: compound concentration 1.11 μM; read-out: Percent Inhibition
Outcome measure: inhibition at 1.11 µM (%)
Please give a number only; it is taken to be in %.

inhibition at 1.11 µM reported for this compound Cc1nccc(Nc2cc(-c3cnc(C)c(C(=O)N(C)c4ccc(F)cc4F)c3)ccn2)n1 : 95

inhibition at 1.11 µM reported for this compound CCN(CC)C(=O)c1cc(-c2ccnc(Nc3ccnc(C)n3)c2)cnc1C : 83

inhibition at 1.11 µM reported for this compound CC(=O)Nc1cc(-c2cnc(Cl)c(NS(=O)(=O)N(C)C)c2C)ccn1 : 98

###

# Tgt: Human VPS34 (Homo sapiens (Human), UniProt Q8NEB9)
# Assay method text: Human VPS34 enzyme assay (Adapta TR-FRET)
# Assay type: biochemical
# Setup conditions: compound concentration 1.11 μM; read-out: Percent Inhibition
Outcome measure: inhibition at 1.11 µM

inhibition at 1.11 µM reported for this compound Cc1ncc(-c2ccnc(NC(=O)C3CCC3)c2)cc1NS(=O)(=O)c1ccc(F)cc1F [Compound I-305] : 94%

inhibition at 1.11 µM reported for this compound CC(=O)Nc1cc(-c2cnc(N)c(S(=O)(=O)N(C)Cc3ccccc3)c2)ccn1 [Compound I-76] : > 99%

inhibition at 1.11 µM reported for this compound Cc1ncc(-c2ccnc(Nc3ccncn3)c2)cc1NS(=O)(=O)N(C)C [Compound I-217] : > 99%

inhibition at 1.11 µM reported for this compound CC(=O)Nc1cc(-c2cnc(N)c(S(=O)(=O)NCC3CC3)c2)ccn1 [Compound I-108] : > 99%

inhibition at 1.11 µM reported for this compound COc1ncc(-c2ccnc(NC(C)=O)c2)cc1S(=O)(=O)NC1CCC1 [Compound I-426] : > 99%

inhibition at 1.11 µM reported for this compound Cc1c(-c2ccnc(Nc3ccnc(C4CC4)n3)c2)cnc(Cl)c1C(=O)N1CC(C)(C)C1 [Compound I-466] : 92%

inhibition at 1.11 µM reported for this compound CC(=O)Nc1cc(-c2cnc(C)c(NS(=O)(=O)N3CCOCC3)c2)ccn1 [Compound I-447] : 98%

inhibition at 1.11 µM reported for this compound CC(=O)Nc1cc(-c2cncc(S(=O)(=O)N3CCC(F)(F)CC3)c2)ccn1 [Compound I-9] : > 99%

###

Exercise: state measured inhibition at 1.11 µM for each of the compounds provided.
# Tgt: Human VPS34 (Homo sapiens (Human), UniProt Q8NEB9)
# Assay method text: Human VPS34 enzyme assay (Adapta TR-FRET)
# Type: biochemical
# Setup conditions: compound concentration 1.11 μM; read-out: Percent Inhibition

The measured inhibition at 1.11 µM that Cc1nccc(Nc2cc(-c3cnc(C)c(N4CCCN(C)S4(=O)=O)c3)ccn2)n1 showed for Human VPS34 (Homo sapiens (Human), UniProt Q8NEB9) is 91%

The measured inhibition at 1.11 µM that CC(=O)Nc1cc(-c2cnc(N)c(S(=O)(=O)NCC3CC3)c2C)ccn1 showed for Human VPS34 (Homo sapiens (Human), UniProt Q8NEB9) is > 99%

The measured inhibition at 1.11 µM that CC(=O)Nc1cc(-c2cnc(Cl)c(NS(=O)(=O)c3cccc4ncccc34)c2C)ccn1 showed for Human VPS34 (Homo sapiens (Human), UniProt Q8NEB9) is > 99%

The measured inhibition at 1.11 µM that CC(=O)Nc1cc(-c2cnc(N)c(C(=O)N3Cc4ccccc4C3)c2)ccn1 showed for Human VPS34 (Homo sapiens (Human), UniProt Q8NEB9) is > 99%

The measured inhibition at 1.11 µM that CC(=O)Nc1cc(-c2ccnc(Nc3ccnc(C)n3)c2)cn2nccc12 showed for Human VPS34 (Homo sapiens (Human), UniProt Q8NEB9) is 87%

The measured inhibition at 1.11 µM that CC(=O)Nc1cc(-c2cnc(N)c(C(=O)Nc3cccc(F)c3)c2)ccn1 showed for Human VPS34 (Homo sapiens (Human), UniProt Q8NEB9) is > 99%

The measured inhibition at 1.11 µM that COc1nccc(Nc2cc(-c3cnc(Cl)c(NS(=O)(=O)c4ccc(F)cc4F)c3C)ccn2)n1 showed for Human VPS34 (Homo sapiens (Human), UniProt Q8NEB9) is > 99%

The measured inhibition at 1.11 µM that CCc1c(-c2ccnc(NC(C)=O)c2)cnc(Cl)c1NS(=O)(=O)c1ccc(F)cc1F showed for Human VPS34 (Homo sapiens (Human), UniProt Q8NEB9) is > 99%

The measured inhibition at 1.11 µM that CC(=O)Nc1cc(-c2cnc(N)c(C(=O)N3CCN(C)CC3)c2)ccn1 showed for Human VPS34 (Homo sapiens (Human), UniProt Q8NEB9) is > 99%

The measured inhibition at 1.11 µM that CC(=O)Nc1cc(-c2cncc(S(C)(=O)=O)c2)ccn1 showed for Human VPS34 (Homo sapiens (Human), UniProt Q8NEB9) is 91%

The measured inhibition at 1.11 µM that CC(=O)Nc1cc(-c2cnc(Cl)c(NS(=O)(=O)c3ccc(C(F)(F)F)cc3Cl)c2C)ccn1 showed for Human VPS34 (Homo sapiens (Human), UniProt Q8NEB9) is > 99%

The measured inhibition at 1.11 µM that Cc1nccc(Nc2cc(-c3cnc(Cl)c(NC(=O)c4ccc(F)cc4F)c3C)ccn2)n1 showed for Human VPS34 (Homo sapiens (Human), UniProt Q8NEB9) is 80%

The measured inhibition at 1.11 µM that CCN(CC)S(=O)(=O)c1cncc(-c2ccnc(NC(C)=O)c2)c1 showed for Human VPS34 (Homo sapiens (Human), UniProt Q8NEB9) is > 99%

The measured inhibition at 1.11 µM that CC(=O)Nc1cc(-c2cnc3c(c2)S(=O)(=O)N[C@@H](c2ccccc2)CO3)ccn1 showed for Human VPS34 (Homo sapiens (Human), UniProt Q8NEB9) is 82%

The measured inhibition at 1.11 µM that Nc1ncc(-c2ccnc(Nc3ccncn3)c2)cc1C(=O)NC12CC(C1)C2 showed for Human VPS34 (Homo sapiens (Human), UniProt Q8NEB9) is 99%

The measured inhibition at 1.11 µM that CC(=O)Nc1cc(-c2cnc(C)c(NS(=O)(=O)c3ccc(F)cc3F)c2)ccn1 showed for Human VPS34 (Homo sapiens (Human), UniProt Q8NEB9) is > 99%

The measured inhibition at 1.11 µM that CC(=O)Nc1cc(-c2cnc3ccn(S(=O)(=O)c4ccccc4)c3c2)ccn1 showed for Human VPS34 (Homo sapiens (Human), UniProt Q8NEB9) is > 99%

###

# Tgt: Human VPS34 (Homo sapiens (Human))
# Assay method text: Human VPS34 enzyme assay (Adapta TR-FRET)
# Assay type: biochemical
# Setup conditions: compound concentration 1.11 μM; read-out: Percent Inhibition
Outcome measure: inhibition at 1.11 µM

inhibition at 1.11 µM reported for this molecule Cc1nccc(Nc2cc(-c3cnc(Cl)c(N)c3C)ccn2)n1 : 94%

inhibition at 1.11 µM reported for this molecule CC(=O)Nc1cc(-c2cncc(C=O)c2)ccn1 : 74%

inhibition at 1.11 µM reported for this molecule CC(=O)Nc1cc(-c2cnc(C)c(NS(=O)(=O)c3cc(C(F)(F)F)ccc3F)c2)ccn1 : > 99%

inhibition at 1.11 µM reported for this molecule CC(=O)Nc1cc(-c2cnc3[nH]cc(CN4CCCC4)c3c2)ccn1 : 83%

inhibition at 1.11 µM reported for this molecule CC(=O)Nc1cc(-c2cnc(N)c(N3CCCNS3(=O)=O)c2)ccn1 : > 99%

inhibition at 1.11 µM reported for this molecule COC(=O)Nc1cc(-c2cnc(N)c(S(=O)(=O)N3CCCC3)c2)ccn1 : > 99%

inhibition at 1.11 µM reported for this molecule CC(=O)Nc1cc(-c2cnc(N(C)C)c(S(=O)(=O)NC(C)(C)C)c2C)ccn1 : 71%

inhibition at 1.11 µM reported for this molecule CC(=O)Nc1cc(-c2cnc(Cl)c(NS(=O)(=O)c3ccccc3Cl)c2C)ccn1 : > 99%

inhibition at 1.11 µM reported for this molecule COc1nccc(Nc2cc(-c3cnc(N)c(C(=O)N(C)C45CC(C4)C5)c3)ccn2)n1 : 97%

inhibition at 1.11 µM reported for this molecule O=C(Nc1cc(-c2cnc3[nH]ncc3c2)ccn1)C1CC1 : > 99%

inhibition at 1.11 µM reported for this molecule CC(=O)Nc1cc(-c2cnc(C)c(NS(=O)(=O)N(C)C)c2)ccn1 : > 99%

inhibition at 1.11 µM reported for this molecule CNc1ncc(-c2ccnc(NC(C)=O)c2)cc1C(=O)N(C)C : > 99%

inhibition at 1.11 µM reported for this molecule CC(=O)Nc1cc(-c2cnc3[nH]cc(S(=O)(=O)N4CCCC4)c3c2)ccn1 : > 99%

inhibition at 1.11 µM reported for this molecule CN(C)c1ncc(-c2ccnc(Nc3ccncn3)c2)cc1C(=O)N(C)C12CC(C1)C2 : > 99%

inhibition at 1.11 µM reported for this molecule CC(=O)Nc1cc(-c2cnc(C)c(N(CC3CC3)S(=O)(=O)C3CC3)c2)ccn1 : 82%

inhibition at 1.11 µM reported for this molecule Cc1ncc(-c2ccnc(Nc3cnccn3)c2)cc1NS(=O)(=O)c1ccc(F)cc1F : > 99%

inhibition at 1.11 µM reported for this molecule CC(=O)Nc1cc(-c2cnc(C)c(NS(=O)(=O)c3cc(Cl)ccc3Cl)c2)ccn1 : > 99%

Data origin: patent US9802960B2
